Data provenance: PubChem BioAssay AID1508591

# CONDITION DESCRIPTION: rat; liver microsomes; pH 7.4; 15.0 min; 1.0 µM
half-life values for the molecules below.
Write the number in min without appending the unit.

>>> measured("CN1CCN(CCCN2c3ccccc3Sc3ccc(S(=O)(=O)N(C)C)cc32)CC1")
1.95

Next molecule, half-life to be filled in.
// half-life value for "O=C(c1cc2ccccc2[nH]1)N1CCc2c(n(Cc3cccnc3)n(CCc3ccccc3)c2=O)C1" : 1.55

* * *

# CONDITION DESCRIPTION: rat; liver microsomes; pH 7.4; 15.0 min; 1.0 µM
READOUT NAME: half-life (min)
Write the number in min without appending the unit.

>>> measured("Cc1nn(CCc2nc(-c3ccc4ccccc4c3)cs2)c2[nH]c(=O)cc(C(F)(F)F)c12")
6.4

// half-life value for "Fc1ccc(Nc2nc(-c3ccnc(N4CCCCC4)c3)nc3ccccc23)cc1F" : 26

// half-life value for "CC(C)c1cc(C(C)C)c(CC(=O)NS(=O)(=O)Oc2c(C(C)C)cccc2C(C)C)c(C(C)C)c1" : 28.2

// half-life value for "Cc1ccc(S(=O)(=O)Nc2ccc(Cl)c(C(=O)Nc3nc(-c4ccccc4)cs3)c2)cc1" : 18

// half-life value for COc1cc2c(c(OC)c1OC)-c1ccc(SC)c(=O)cc1C(N)CC2 (stereo not given) : 9.88

// half-life value for "N#Cc1cccc(-c2nccc(-n3ccnc3)n2)c1" : 26

// half-life value for "CNC(=O)C1CCN(c2nc(-c3ccc(Br)cc3)cs2)CC1" : 26.2

// half-life value for "COc1cccc(N2CCN(c3ncc4c(n3)CCN(Cc3ccc(Br)cc3)C4)CC2)c1" : 18.2

// half-life value for "O=S(=O)(Nc1nccs1)c1ccc(NCc2cccc(Br)c2O)cc1" : 14
